The measured values listed here are drawn from the nanobody polyreactivity screen of Harvey et al. (2022).

# protocol-notes: yeast display, Sf9 membrane polyspecificity reagent, FACS + sequencing; frameworks hold sequencing errors
readout-label: polyreactivity (PSR sort gate)

// worked examples, polyreactivity (PSR sort gate) included
- entry-sequence: "QVQLVESGGGLFQAGGSLRLSCAASGRIFVFYTMGWYRQAPGKERELVASINSGGSTYYADSVKGRFTISRDNAKNTVYLQMNSLKPEDTAVYYCAASRTRRGVRQFDYWGQGTQVTVSS"
  value-observed: "high polyreactivity"
- entry-sequence: "QVQLVESGGGLVQAGGSLRLSCAASGRIFADNAMGWYRQAPGKERELVATISRNGGRTSYADSVKGRFTISRDNAKNTVYLQMNSLNPEVTAVYYCAVRAPGSSEGYYWGQGSQVTVSS"
  value-observed: "low polyreactivity"
- entry-sequence: "QVHLVESGGGLFQAGGSLSISSASSGRTFYWYPMGWYRQAPGKERELVAAITGMGTRTYYADSVKGRFTISRDNAKNTDYLQMNSLKPEDTAVYYCNTRYYGGFDSWGQGTQVTVSS"
  value-observed: "high polyreactivity"
- entry-sequence: "QVQLVESGGGLVQAGVSLRLSCAASGSIFGHYAMGWYRQAPGKERELVAAISWSGTSTYYADSVKGRFTISRDNAKNTVYLQMNSLKPEDTAVYYCNVVYRVVSPSGGGYWGQGTQVTVSS"
  value-observed: "high polyreactivity"
- entry-sequence: "QVQLVESGGGLVQAGGSLRLSCAASGSTFGFNAMGWYRQAPGKERELVAAISRSGGSTYYADSVKGRFTISRDNAKNTVYLQMNSLKPEDTAVYYCAVGYRYLKWVDYWGQGTQVTVSS"
  value-observed: "high polyreactivity"

I'd like to know its polyreactivity (PSR sort gate). The sequence in question is QFQLVESGGGLVQAGGSLRLSCAASGGTFGNNDMGWYRQAPGKERELVAAIRSAGTTYYADSVKGRFTISRDNAKNTVYLQMNSLKPEDTAVYYCNADTTGYWSYGFQYYGEDYWGQGTQVTVSS low polyreactivity

I'd like to know its polyreactivity (PSR sort gate). The sequence in question is QVQLVESGGGLVQAGGSLRLSCAASGRIFRDYTMGWYRTAPGKERELVAAITSGGSTYYADSVKGRFTISRDTAKNTVYLQMNSLKPEDTAVYYCNADGYVPGVDYWGLGTQVTVSS low polyreactivity

I'd like to know its polyreactivity (PSR sort gate). The sequence in question is QVQLQESGGGLVQAGGILRLSCASCGNIIPSAVMVWYRQALGKEREFVATINSGSNTYYADSVKGRFTISRDNAKITVYQQMNILKLEDTAVYYCAAYFKLPAWHTYWGQGTQVTVSS low polyreactivity

I'd like to know its polyreactivity (PSR sort gate). The sequence in question is QVQLVESGGGLDQAGGSLRLSCAASGLTFPTNARGWYRQAPGKEREFVAAITSRGGTTYYADSVKGRFTISRDNAKNTVYLQMNSLKPEETAVYYCGALSVTIYQYDSYGYWGQGTQVSVSS low polyreactivity

I'd like to know its polyreactivity (PSR sort gate). The sequence in question is QVQLVESGVGLVQAGGSLRVSCAASGSTIPIYAMGWYRQAPGKERELVAVISRSGGITYYADSVKGRFTISRDNAKNTVYLQMNSLKPEDTAVYYCNARTRGWTPDRGYWGQGTQVTVSS high polyreactivity

I'd like to know its polyreactivity (PSR sort gate). The sequence in question is QVQHVESGGGLVQAGGSLRLSCAASGRIFYNYAMGWYRQAPGKEREFVADIDFNGGSTYYADSGKGRFTISRDNAKTTVYLQMNSLKPDDTAVYYSAAEQDDARYNAWWIGPMYSWGQGTQVTVSS low polyreactivity
